- Tested on: WM-115 cells
- test: Wound healing assay (cell migration)
- Format: cell-based, human
- Parameters: key: (-) means that the cell migration was not inhibited and that the wound healed; (+) means a slight inhibition, which slows the trend to heal; (++) means that the cell migration was inhibited, since only some cells were visible in the wound; (+++) means the absolute inhibition of cell migration
- condition.details: Concentration 2.5 mM
measurement.kind: inhibit the cell migration of WM-115 cells

Query string: GET /values?readout=inhibit the cell migration of WM-115 cells&item= O=S(=O)(O)OCc1cocc1CO[C@@H]1O[C@H](COS(=O)(=O)O)[C@H](O)[C@H](O)[C@H]1O
Result string: +++

Query string: What value of inhibit the cell migration of WM-115 cells has been recorded for this entry: O=S(=O)(O)OCc1cocc1CO[C@@H]1O[C@H](CO)[C@H](O)[C@H](O)[C@H]1O
Result string: +

Query string: Which inhibit the cell migration of WM-115 cells reading was recorded for the compound O=S(=O)(O)OCc1cocc1CO[C@@H]1O[C@H](CO)[C@@H](O)[C@H](O)[C@H]1O ?
Result string: +

Query string: inhibit the cell migration of WM-115 cells lookup needed for OC[C@H]1O[C@@H](OCc2cocc2CF)[C@H](O)[C@@H](O)[C@H]1O , thanks.
Result string: +++
